Recorded values, source the supplement of paper PMC10567573.

B1: VDR (parent)
chain: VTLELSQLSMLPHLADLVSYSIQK

Variants of: B1
Assay: protein stability index of a GFP-peptide fusion (GPS, HEK-293T) (PSI 1-6); higher = more stable;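 also: lentivirally expressed fusions sorted by FACS into six bins by GFP to DsRed ratio, PSI derived from sequencing read proportions per bin multiplied by bin number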
Settings: c terminus: a fixed tail appended
Where protein stability index equals or exceeds 3, the correct label is true (1); where it does not, the label is false (0).

Challenge: Can `P12Q` be said to have protein stability index at or above 3?
Response given: true (1)

Challenge: Reported protein stability index reaches at least 3 for `K24W` ?
Response given: true (1)

Challenge: Confirm if protein stability index reported for the variant `Q7A` is 3 or above.
Response given: true (1)

Challenge: Is protein stability index at least 3? Consider `Q23K`
Response given: true (1)

Challenge: # bool: protein stability index of `S21D` >= 3
Response given: true (1)

Challenge: Reported protein stability index at or above 3? `S21E`
Response given: false (0)

Challenge: Does `L14D` have a reported protein stability index of at least 3?
Response given: false (0)

Challenge: Given the entry `L3I` , answer whether its protein stability index meets or surpasses 3.
Response given: false (0)

Challenge: Has `L3G` a recorded protein stability index greater than or equal to 3?
Response given: false (0)

Challenge: Could you please find out whether `L5M` has protein stability index that meets 3 or exceeds it?
Response given: true (1)

Challenge: Please check the record `K24S` and state if its protein stability index is at or above 3.
Response given: false (0)

Challenge: # bool: protein stability index of `S9G` >= 3
Response given: true (1)

Challenge: Exam item: decide whether the reported protein stability index for `L8W` is at least 3.
Response given: false (0)

Challenge: Given `S6D` , state whether its protein stability index is at least 3.
Response given: false (0)

Challenge: Does `T2E` have a reported protein stability index of at least 3?
Response given: false (0)

Challenge: Decide: protein stability index of `M10I` >= 3?
Response given: false (0)

Challenge: Reported protein stability index at or above 3? `A15H`
Response given: true (1)

Challenge: Given the entry `M10P` , answer whether its protein stability index meets or surpasses 3.
Response given: false (0)

Challenge: Hi, just wondering whether `L17K` shows protein stability index of 3 or higher.
Response given: false (0)

Challenge: Kindly determine if protein stability index recorded for `A15D` is above or exactly 3.
Response given: true (1)

Challenge: Please indicate if the recorded protein stability index for `S9Q` meets or exceeds 3.
Response given: false (0)

Challenge: Quick check: does `V1M` have protein stability index greater than or equal to 3?
Response given: false (0)

Challenge: Please check the record `S9Y` and state if its protein stability index is at or above 3.
Response given: false (0)

Challenge: Record `S6W` ; criterion: protein stability index no lower than 3. Met?
Response given: false (0)

Challenge: Is protein stability index at least 3? Consider `V18K`
Response given: false (0)

Challenge: Please tell me: is the variant `L14M` at or over 3 in terms of protein stability index?
Response given: true (1)

Challenge: Can `L5Y` be said to have protein stability index at or above 3?
Response given: true (1)

Challenge: Hello, I need to know if `L14A` has measured protein stability index not below 3. Thanks!
Response given: false (0)

Challenge: Test whether the variant `H13Q` records protein stability index of 3 or higher.
Response given: false (0)

Challenge: Decide: protein stability index of `L11R` >= 3?
Response given: false (0)

Challenge: Could you tell me if the measured protein stability index of `D16L` reaches 3 or more?
Response given: true (1)

Challenge: Answer whether protein stability index of `I22Y` is greater than or equal to 3.
Response given: true (1)

Challenge: Is reported protein stability index greater than or equal to 3 here: `S9W`
Response given: true (1)

Challenge: Decide: protein stability index of `L17R` >= 3?
Response given: false (0)
